- study.target: SIRT6 enzyme (Homo sapiens, UniProt Q8N6T7)
- Sequence (Q8N6T7 whole entry, species assumed): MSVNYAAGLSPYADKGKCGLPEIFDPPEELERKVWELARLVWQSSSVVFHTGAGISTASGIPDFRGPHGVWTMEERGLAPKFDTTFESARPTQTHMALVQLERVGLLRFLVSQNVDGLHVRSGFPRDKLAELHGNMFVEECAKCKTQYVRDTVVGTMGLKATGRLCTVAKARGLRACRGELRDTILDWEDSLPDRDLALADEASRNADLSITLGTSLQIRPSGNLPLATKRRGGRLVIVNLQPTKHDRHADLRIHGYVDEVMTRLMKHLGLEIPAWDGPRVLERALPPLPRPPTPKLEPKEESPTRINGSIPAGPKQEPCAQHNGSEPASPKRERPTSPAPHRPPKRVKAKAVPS
- run.description: Measurement of deacetylation activity (SIRT6, AlphaLISA, H3K9(Ac) peptide)
- Type: biochemical
- condition.label: SIRT6 25 ng/mL, H3K9(Ac) biotin peptide 2 nM, NAD 10 μM, room temperature 30 minutes, duplicate
parameter.measured: EC150 (the concentration of the compound showing a relative enzyme activity of 150%) (μm)
Answer with a number only, understood to be in μm.

compound | recorded.value
O=C(NCC(F)(F)F)Nc1nc2c(s1)C1COCC(C2)N1c1nnc(-c2cccc(C(=O)C3CC3)c2)o1 (stereo not shown) [Example 114] | 2.4

Quick one: EC150 (the concentration of the compound showing a relative enzyme activity of 150%) for CCO[C@H](C)c1nnc(N2CCc3nc(NC(=O)NC)sc3C2)o1 [Example 3] ?
3.4

Find the recorded EC150 (the concentration of the compound showing a relative enzyme activity of 150%) belonging to C[C@H](CO)NC(=O)Nc1nc2c(s1)[C@@H]1COC[C@H](C2)N1c1nc2cc(F)cc(F)c2o1 [Example 147] and report it.
3.3

Which value of EC150 (the concentration of the compound showing a relative enzyme activity of 150%) has been reported for C[C@H](CO)NC(=O)Nc1nc2c(s1)C1CCC(C2)N1c1nc2cc(S(C)(=O)=O)ccc2o1 (stereo partly shown) [Example 152] in the records?
2.7
